System: ob/ob mice
ASSAY OVERVIEW: Intranasal (IN) efficacy: food intake in fasted ob/ob mice
Assay type: in vivo
TEST PARAMETERS: Mus musculus, inhaled or nasal, 6 mg/kg, 4 hour, read-out: % Food Intake Reduction at 4 hour
inhibition in vivo at 6 mg/kg reference
Answer in %, number only, no unit symbol.

Here's what some known entries look like.
{"COMPOUND": "C[C@@H]1[C@@H](/N=C(/Nc2ccc(C(=O)OCCc3ccc(Cl)cc3Cl)cc2)N2C[C@@H](C)N[C@@H](C)C2)C[C@H]2C[C@@H]1C2(C)C [Compound 7]", "UNIT ANNOTATION": "%", "inhibition in vivo at 6 mg/kg": 85.5}
{"COMPOUND": "C[C@@H]1[C@@H](/N=C(\\Nc2ccc3[nH]c(CCc4ccc(Cl)cc4Cl)nc3c2)N2CCN[C@@H](C)C2)C[C@H]2C[C@@H]1C2(C)C [Compound 5]", "UNIT ANNOTATION": "%", "inhibition in vivo at 6 mg/kg": 67.3}
{"COMPOUND": "COc1ccc(CCNC(=O)c2ccc(N/C(=N/[C@H]3C[C@H]4C[C@@H]([C@@H]3C)C4(C)C)N3CCN[C@@H](C)C3)cc2)c(F)c1 [Compound 1]", "UNIT ANNOTATION": "%", "inhibition in vivo at 6 mg/kg": 91.5}
{"COMPOUND": "COc1ccc(CCNC(=O)c2ccc(N/C(=N/[C@H]3C[C@H]4C[C@@H]([C@@H]3C)C4(C)C)N3C[C@@H](C)N[C@@H](C)C3)cc2)c(F)c1 [Compound 3]", "UNIT ANNOTATION": "%", "inhibition in vivo at 6 mg/kg": 70.3}
{"COMPOUND": "COc1ccc(CCNC(=O)c2ccc(N/C(=N/[C@H]3C[C@H]4C[C@@H]([C@@H]3C)C4(C)C)N3C[C@H](C)N[C@@H](C)C3)nc2)c(F)c1 [Compound 9]", "UNIT ANNOTATION": "%", "inhibition in vivo at 6 mg/kg": 69.6}
{"COMPOUND": "Cc1ccc(CCc2nc3ccc(N/C(=N\\[C@H]4C[C@H]5C[C@@H]([C@@H]4C)C5(C)C)N4CCN[C@@H](C)C4)cc3[nH]2)c(C)c1 [Compound 2]", "UNIT ANNOTATION": "%", "inhibition in vivo at 6 mg/kg": 1.7}
{"COMPOUND": "CCOC(=O)c1ccc(N/C(=N/[C@H]2C[C@H]3C[C@@H]([C@@H]2C)C3(C)C)N2C[C@@H](C)N[C@@H](C)C2)cc1 [Compound 8]", "UNIT ANNOTATION": "%", "inhibition in vivo at 6 mg/kg": 84.1}

// query inhibition in vivo at 6 mg/kg value for entry C[C@@H]1[C@@H](/N=C(\Nc2ccc(NC(=O)CCc3ccc(Cl)cc3Cl)cc2)N2CCN[C@@H](C)C2)C[C@H]2C[C@@H]1C2(C)C [Compound 6]
57.4

---

inhibition in vivo at 1 mg/kg reference
Tested on: ob/ob mice
ASSAY OVERVIEW: Intranasal (IN) efficacy: food intake in fasted ob/ob mice
Type: in vivo
TEST PARAMETERS: Mus musculus, inhaled or nasal, 1 mg/kg, 4 hour, read-out: % Food Intake Reduction at 4 hour
Answer in %, number only, no unit symbol.

{"STRUCTURE STRING": "C[C@@H]1[C@@H](/N=C(/Nc2ccc(C(=O)OCCc3ccc(Cl)cc3Cl)cc2)N2C[C@@H](C)N[C@@H](C)C2)C[C@H]2C[C@@H]1C2(C)C", "SYSTEM TESTED": "ob/ob mice", "PROPERTY NAME": "inhibition in vivo at 1 mg/kg", "VAL": 23.5}
{"STRUCTURE STRING": "COc1ccc(CCN2CCc3cc(N/C(=N/[C@H]4C[C@H]5C[C@@H]([C@@H]4C)C5(C)C)N4CCN[C@@H](C)C4)ccc3C2=O)c(F)c1", "SYSTEM TESTED": "ob/ob mice", "PROPERTY NAME": "inhibition in vivo at 1 mg/kg", "VAL": 14.2}

Query the reported inhibition in vivo at 1 mg/kg for ob/ob mice; item: CCOC(=O)c1ccc(N/C(=N/[C@H]2C[C@H]3C[C@@H]([C@@H]2C)C3(C)C)N2C[C@@H](C)N[C@@H](C)C2)cc1
37.8

Query the reported inhibition in vivo at 1 mg/kg for ob/ob mice; item: C[C@@H]1[C@@H](/N=C(/Nc2ccc(C(=O)N[C@H](CO)Cc3ccc(Cl)cc3Cl)cn2)N2C[C@@H](C)N[C@@H](C)C2)C[C@H]2C[C@@H]1C2(C)C
27.7

Query the reported inhibition in vivo at 1 mg/kg for ob/ob mice; item: C[C@@H]1[C@@H](/N=C(\Nc2ccc3[nH]c(CCc4ccc(Cl)cc4Cl)nc3c2)N2CCN[C@@H](C)C2)C[C@H]2C[C@@H]1C2(C)C
10.4

Query the reported inhibition in vivo at 1 mg/kg for ob/ob mice; item: COc1ccc(CCNC(=O)c2ccc(N/C(=N/[C@H]3C[C@H]4C[C@@H]([C@@H]3C)C4(C)C)N3C[C@@H](C)N[C@@H](C)C3)cc2)c(F)c1
-3

Query the reported inhibition in vivo at 1 mg/kg for ob/ob mice; item: COc1ccc(CCn2cnc3cc(N/C(=N/[C@H]4C[C@H]5C[C@@H]([C@@H]4C)C5(C)C)N4CCN[C@@H](C)C4)ccc3c2=O)c(F)c1
22.6

Query the reported inhibition in vivo at 1 mg/kg for ob/ob mice; item: C[C@@H]1[C@@H](/N=C(\Nc2ccc(NC(=O)CCc3ccc(Cl)cc3Cl)cc2)N2CCN[C@@H](C)C2)C[C@H]2C[C@@H]1C2(C)C
-11.9

Query the reported inhibition in vivo at 1 mg/kg for ob/ob mice; item: COc1ccc(CCNC(=O)c2ccc(N/C(=N/[C@H]3C[C@H]4C[C@@H]([C@@H]3C)C4(C)C)N3C[C@H](C)N[C@@H](C)C3)nc2)c(F)c1
35.2
